This listing pairs compounds with measured GI50.
System: PC-3
Test: NCI tumour cell line growth inhibition, 48 h
Active and inactive are the calls of the source. Rule as the data show it: active = GI50 up to about 1.1 µM and inactive = higher.

> print(dat)
                            smiles.str  tested.target           obs.value
1      O=C(C#Cc1ccccc1)C1=Cc2ccccc2OC1           PC-3  4.34 µM (inactive)
2  O=C1C(c2ccccc2)=[N+]([O-])c2ccccc21           PC-3  11.6 µM (inactive)

Requested read-out: GI50. Entry: CCCn1c(SC)nc(COC(=O)NC)c1COC(=O)NC
> 100 µM (inactive)

---

Tested on: A549
Assay: NCI tumour cell line growth inhibition, 48 h
Activity calls are given as the source filed them. Rule as the data show it: active = GI50 up to about 1.1 µM and inactive = higher.
Classes to choose from: active, inactive

Sample answers from the record:
> print(dat)
                                    compound  tested.target  category
 1  C#CCNC(=O)NCCCC(NC(C)=O)C(=O)NCc1ccccc1 (stereo not given)           A549  inactive
 2             C[N+]1(CCN=C=NC2CCCCC2)CCOCC1           A549  inactive
 3  CCCC(=O)Nc1ccc(O)c2c1C1CCCCCC21 (stereo not given)           A549  inactive
 4  Cc1cc(C)nc(NS(=O)(=O)c2ccc(Nc3c4ccccc4nc4c(C(=O)NNCCO)cccc34)cc2)n1           A549  inactive
 5  OC1c2[nH]c3ccccc3c2CCN2CCCCC12 (stereo not given)           A549  inactive
 6  C/C(=N/NC(N)=S)C(CN(C)C)C(C1=C(O)c2ccccc2OC1)c1ccccc1 (stereo not given)           A549  inactive
 7          Cc1ccc(S(=O)(=O)OC2CCN(C)CC2)cc1           A549  inactive
 8  C=CC1ON(C)CCc2cc(OC)c(OC)cc21 (stereo not given)           A549  inactive
 9  CC(C)(C)C1CCC2c3c([nH]c4ccccc34)C3C(=O)N(c4ccc5c(c4)C(=O)c4ccccc4C5=O)C(=O)C3C2C1 (stereo not given)           A549  inactive
10  CCOC(=O)C(=O)/C(=C/NC(=S)c1ccncc1)C(=O)OCC           A549  inactive

Tell me the recorded outcome of this test for CCCCCCCCCc1cc(=O)c2c(O)cc(O)cc2o1 .
inactive

Continue with CCOC(=O)CCC(NC(=O)Cc1ccc(Oc2nc3ccccc3nc2-c2ccccc2)cc1)C(=O)OCC (stereo not given)
inactive

// same read-out, input: C=C(CCC(=O)N(CCc1c[nH]c2ccccc12)C(=O)c1ccccc1CSCC)C(=O)OC
inactive

And for COc1ccc(N2C(=O)C3c4[nH]c5ccc(OC)cc5c4C4CCC(C(C)(C)C)CC4C3C2=O)cc1 (stereo not given) ?
inactive

Record: COC(=O)CCC(C)[C@H]1CCC2C3CC[C@@H]4CC5(CC[C@]4(C)C3C[C@H](OC(C)=O)[C@@]21C)OOC1(CCCCC1)OO5 (stereo not given in full)
inactive

Please give the result for Cc1cnoc1NS(=O)(=O)c1ccc(Nc2nnc(/C=C/c3c(O)ccc4ccccc34)c(=O)n2N)cc1 too.
inactive

What would you report for C=CCN1C(=O)C(=O)N(CC=C)C(=O)C1=O ?
inactive

What do you get for O=C(O)c1c(-c2ccccc2)c(=O)[nH]c2ccccc12 ?
inactive

Next entry: CC1=C[C@@H]2[C@@H](CC(CO)=C[C@H]3[C@@H]4C(C)(C)[C@]4(OCC(C)C)[C@H](OCC(C)C)[C@@H](C)[C@]23O)C1=O
active

// repeat for C=CCSC[C@H](NC(=O)COc1ccccc1)C(=O)NC(C(=O)OCc1ccc([N+](=O)[O-])cc1)=C(C)C and report
inactive

Continue with CC[C@@H]([C@H](O)c1ccccc1Cl)[N+](=O)[O-]
inactive

Then what about the compound CCSC1=N/C(=C\c2ccc(N(C)C)cc2)C(Cl)=N1 ?
inactive

Now the same for CC(C)CC(=O)NC(C(=O)NC(C(=O)NC(CC(C)C)C(O)CC(=O)NC(C)C(=O)NC(CC(C)C)C(O)CC(=O)O)C(C)C)C(C)C (stereo not given)
inactive

And for O=c1c2cc([N+](=O)[O-])ccc2n2n1Cc1ccccc1CC2 ?
inactive

# repeat for COC(=O)C1=C(OC)C(=P2(c3ccccc3)CC(c3ccccc3)=C2c2ccccc2)C(C(=O)OC)=C1C(=O)OC (stereo not given)
inactive

One more compound: CCC(C)N1CN(c2ccccc2)C2(CCN(CCCC(=O)c3ccc(F)cc3)CC2)C1=O (stereo not given)
inactive

One more compound: N#Cc1c(N)nc(Nc2cccc3ccccc23)c(C#N)c1C#N
inactive

Another: CN(/N=C/C=N/N(C)C1=NCCN1)C1=NCCN1
inactive

Now try CCOC(=O)c1c(C)cc(=O)n2c1[nH]c1ccccc12 .
inactive

Check CC(SC(=S)Nc1cccc(F)c1)C(=O)O (stereo not given) too.
inactive

And for N#CCCN(CCC#N)c1ccc(C(=N/c2ccc(Cl)cc2)/N=N/c2ccc(Cl)cc2)cc1 ?
inactive

Also, C=C1C(=O)O[C@@H]2[C@H](O)[C@@H](C)[C@@H]3C=CC(=O)[C@@]3(C)[C@H](OC(=O)C=C(C)C)[C@H]12 please.
inactive

Same question, O=C(O)/C=C/c1c2ccc(=O)c(O)c-2oc2c(O)c(O)ccc12 this time
inactive

Next: Cc1ccc(C2=NO[C@@H]3C(=O)N(c4ccc(Cc5ccc(N6C(=O)[C@H]7C(c8ccc(C)cc8)=NO[C@H]7C6=O)cc5)cc4)C(=O)[C@H]23)cc1
inactive

Item: CC/N=C(/C#N)NCC
inactive

---

Tested on: SF-539
Test: NCI tumour cell line growth inhibition, 48 h
The source made the active and inactive calls. No stated cut-off is given here; in the data, active = GI50 up to about 1.1 µM and inactive = higher.
READOUT LABEL: GI50

Answered examples (5):
> print(dat)
                                   compound  readout.label            obs.value
1  N#CC12C3C4CC5C6C4C1C6C(O)(C53)N2Cc1ccccc1 (centres undefined)           GI50  > 100 µM (inactive)
2  CCOC(=O)C1=C(N)N(c2ccccc2)/C(=C2\SC(=S)N(c3ccc(C)cc3)C2=O)S1           GI50   14.8 µM (inactive)
3   c1ccc(OC2=NC3=S(S2)SC(Oc2ccccc2)=N3)cc1           GI50   22.3 µM (inactive)
4  COC(=O)CCC(=O)NC1=C(Nc2ccc(OC)cc2)C(=O)c2ccccc2C1=O           GI50   14.2 µM (inactive)
5                Cc1ccccc1Cn1nc2ccccc2cc1=O           GI50  > 100 µM (inactive)

Now consider a different compound.
So what does the record say about GI50 for CC(=O)C1=C(N=[N+]=[N-])c2cccc3cccc(c23)C1=O ?
13.3 µM (inactive)

---

Test system: Hs-578T
Assay: NCI tumour cell line growth inhibition, 48 h
Active and inactive are the calls of the source. No stated cut-off is given here; in the data, active = GI50 up to about 1.1 µM and inactive = higher.
Valid outcomes are listed here; reply with one: YES (active), NO (inactive)

Completed entries (count: 6):
> print(dat)
                                   molecule  category
1    O=C(O)c1c(-c2ccccc2)c(=O)[nH]c2ccccc12        NO
2    NS(=O)(=O)c1nc(S(=O)(=O)O)c2[nH]cnc2n1        NO
3  CC[C@@H]([C@H](O)c1ccccc1Cl)[N+](=O)[O-]        NO
4  Cc1cnoc1NS(=O)(=O)c1ccc(Nc2nnc(/C=C/c3c(O)ccc4ccccc34)c(=O)n2N)cc1        NO
5  CC(=O)Oc1cc(S(=O)(=O)Nc2nc(N)n[nH]2)c(S)cc1Cl        NO
6        COc1ccc(OC)c(-c2nc(O)c3ccccc3n2)c1        NO

Outcome logged for C=CCCC1(CC(Sc2ccccc2)P(=O)(c2ccccc2)c2ccccc2)OCCO1 (stereo not given) in this assay:
NO

Would you mind doing CC(C)(N)CO[C@H]1C[C@H]2CC[C@@]1(C)C2(C)C as well?
NO

What do you get for COc1ccc(C[C@@H]2NC[C@@H](O)[C@@H]2OC(C)=O)cc1 ?
YES

Continue with C=C(CCC(=O)N(CCc1c[nH]c2ccccc12)C(=O)c1ccccc1CSCC)C(=O)OC
NO

---

# GI50 per entry
Tested on: HCT-15
Assay: NCI tumour cell line growth inhibition, 48 h

The following molecules have reported results that may help.
> print(dat)
                                   molecule  tested.target  obs.value
1  CSC1=C(C#N)C(=O)N(c2ccc(Cl)cc2)C(=O)C1C#N (stereo unspecified)         HCT-15   > 100 µM
2               Nc1ncnc2c1cnn2Cc1ccc(Cl)cc1         HCT-15   > 100 µM
3  O=C(NCCC1CNc2ccccc21)OCc1ccccc1 (stereo unspecified)         HCT-15   > 100 µM

// GI50 lookup, key: COc1ccc(/C=C2\CN(C)C/C(=C\c3ccc(OC)cc3)C2=O)cc1
> 100 µM

What about O=C1C=CC(=O)C(CNc2ccc(C(=O)OC34CC5CC(CC(C5)C3)C4)cc2)=C1Br ?
5.19 µM

Please answer likewise for Cc1ccn2c(=O)cc(-c3ccccc3)nc2c1
> 100 µM
